Measured values drawn from PubChem BioAssay for this set.

assay-remarks: small molecules captured by biotinylated probe aFSTL3 – biochemical, small-molecule microarray, fluorescence 635/667, stem cell growth factor project, primary screen (AID 1064);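 note: measures binding of the biotinylated anti-FSTL3 antibody to printed compounds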
experimental-setup: higher = more signal
Recorded composite z-score values for a group of molecules are listed next.
Simply state the number, no unit and no words.

molecule: COc1ccc([Si](C)(C)[C@@H]2[C@@H](CC(=O)N(CCO)Cc3ccccc3)O[C@]3(C(=O)N(Cc4cccc(N5CCCCC5=O)c4)c4ccccc43)[C@H]2C)cc1
composite z-score: 0.0001
//
molecule: CCCN1C(=O)[C@@]2(Cc3ccccc31)N=C(c1ccc(OCCCO)cc1)O[C@H]2c1ccccc1
composite z-score: 0.654
//
molecule: CCCCN1CC=CC23O[C@@H]4/C=C\CCCOC(=O)C4[C@H]2C(=O)N(CCO)[C@@H]3C1=O (some centres undefined)
composite z-score: 0.33

Prompt: What measured composite z-score goes with CN1C(=O)C2C=CC(C(O)c3cccn3C)N(Nc3ccc([N+](=O)[O-])cc3[N+](=O)[O-])C2C1=O (centres undefined) ?
Response: 0.108
